Measured pEC50, listed per entry.
Target: T1, CLDN6 endogenously expressed by human cancer cell lines (ARK2, OVCA429) (human, UniProt P56747 1-220)
T1 construct: Untagged endogenous protein; also called Endogenous CLDN6+
T1 sequence: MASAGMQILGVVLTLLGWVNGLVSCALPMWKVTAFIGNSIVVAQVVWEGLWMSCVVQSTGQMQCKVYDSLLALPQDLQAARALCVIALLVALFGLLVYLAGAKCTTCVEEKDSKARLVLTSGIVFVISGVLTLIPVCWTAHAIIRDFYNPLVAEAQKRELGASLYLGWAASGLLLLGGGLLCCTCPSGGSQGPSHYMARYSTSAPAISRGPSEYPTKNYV
Experiment: FACS, AF647-labelled mAb, OVCA429 cells
pEC50: −log10 of the molar value.

# BINDER, pEC50
records = [
    ("AB9 (antibody, V domains shown, Labelled with Alexa Fluor 647 NHS ester for FACS) VH: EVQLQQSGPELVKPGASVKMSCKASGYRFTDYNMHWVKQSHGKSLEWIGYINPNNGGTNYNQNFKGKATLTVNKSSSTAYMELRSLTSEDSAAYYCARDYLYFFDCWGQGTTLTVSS VL: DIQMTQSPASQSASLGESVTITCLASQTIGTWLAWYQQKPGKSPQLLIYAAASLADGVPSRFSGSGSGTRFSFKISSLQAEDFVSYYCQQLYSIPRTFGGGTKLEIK", 5.93),
    ("AB10 (antibody, V domains shown, Labelled with Alexa Fluor 647 NHS ester for FACS) VH: QIQLVQSGPALKKPGETVKISCKASGYTFTDYSMHWIKQAPGKGLKWMGWISTETGEPTYADGFKGRFDFSLETSADTAYLSINNLTNEDTATYFCTRGLWSSFAYWGQGTLVTVSA VL: DVVMTQTPLSLPVSLGDQASISCRASQSLVHSNGNTYLHWFLQKPGQSPKLLIYKVSNRFSGVPDRFSGSGSRTDFTLKISRVEAEDLGVYFCSQITHVPYTFGGGTKLEIK", 5.61),
]
